Form field: apparent KD of MS2 coat protein (one value per entry).
tested on: MS2 coat protein; test: apparent KD of MS2 coat protein; higher = weaker reporter binding; conditions: Eterna round: R107; input ligand: tryptophan 2.4 mM
Respond with the bare value in µM.

Illustrative cases are given below, each with its answer.
1. ACACAUGAGGAUCACCCAUGUGCGCUGGAAGGAGCGCAGAAUCAUGCAGGUAGGUCGCCAGUGCCCAUUACUAGAGGGAUAAGAG [Onriri] = 0.0646
2. UGUAACAUGAGGAUCACCCAUGUGAGUGAUACCAGACUAGUGUUGGUCCCUUGGCAGCACGCUGGGCGAGUGUGUAGUCUAUGCG [Same State - Theophylline A (Freestyle 17)] = 0.0805

q: Give the measured apparent KD of MS2 coat protein for UCGCAUUGCUCAGAUACCAGACAUGAGGAUCACCCAUGUACCAAGGUACCCGAAAGGAAUGUCCCUUGGCAGCUGAGCAAUGCGU [MAT - Exclusion Theophlline B - Mod of Eli - D19]
a: 0.0104
